These entries and their values trace back to patent US20260231945A1.

# Test system: Root-knot nematodes Meloidogyne spp. juveniles (J2)
# Experimental details: whole plant or invertebrate
# Format: in vivo
# Settings: 500 ppm; 70-100 J2 juveniles; 22±2° C., 70±5% RH; dead/inactive counted at 24, 48, 72 and 96 hours (time of rating not stated)
Outcome measure: % Mortality Rating

Illustrative cases are given below, each with its answer.
Data request: What does the data say about its % Mortality Rating? Entry: C=CCc1ccc(C=CC=NC(CCCNC(=N)N)C(=O)O)c(O)c1 (stereo not drawn)
Data returned: B (50-69)

Data request: What does the data say about its % Mortality Rating? Entry: N#Cc1ccc(C=CC=NC(CCCNC(=N)N)C(=O)O)c(C(F)(F)F)c1 (stereo not drawn)
Data returned: A (70-100)

Data request: What does the data say about its % Mortality Rating? Entry: N=C(N)NCCCC(N=CC=Cc1cc2ccccc2o1)C(=O)O (stereo not drawn)
Data returned: A (70-100)

Data request: What does the data say about its % Mortality Rating? Entry: N=C(N)NCCCC(N=CC=Cc1cccnn1)C(=O)O (stereo not drawn)
Data returned: C (0 to 49)

Data request: What does the data say about its % Mortality Rating? Entry: N=C(N)NCCCC(N=CC=Cc1ccc2c[nH]cc2c1Cl)C(=O)O (stereo not drawn)
Data returned: B (50-69)

Now for the molecule whose % Mortality Rating we want.
Data request: What does the data say about its % Mortality Rating? Entry: N=C(N)NCCCC(N=CC=Cc1ccncc1)C(=O)O (stereo not drawn)
Data returned: A (70-100)
